- system.name: turkey β3C-adrenoceptor (tβ3C) (Meleagris gallopavo)
- Sequence (A0A803YLI8 entry or part of it): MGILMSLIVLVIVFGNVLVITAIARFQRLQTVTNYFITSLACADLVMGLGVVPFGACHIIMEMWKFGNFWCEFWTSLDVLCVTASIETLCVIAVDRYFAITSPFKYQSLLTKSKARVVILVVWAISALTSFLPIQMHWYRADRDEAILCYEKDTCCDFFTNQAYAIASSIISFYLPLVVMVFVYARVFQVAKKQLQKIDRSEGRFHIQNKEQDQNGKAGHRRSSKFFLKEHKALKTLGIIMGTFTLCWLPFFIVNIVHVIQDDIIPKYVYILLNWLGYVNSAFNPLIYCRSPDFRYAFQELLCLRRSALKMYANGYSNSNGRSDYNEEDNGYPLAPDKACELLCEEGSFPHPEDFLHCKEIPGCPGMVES
- test: CRE-SPAP production, CHO tβ3C cells
- Format: cell-based
pEC50: −log10 of the molar value.
quantity: pEC50

CC(C)NCC(O)c1ccc(O)c(O)c1 (stereo not shown) [Isoprenaline] ... 7.57
NC[C@H](O)c1ccc(O)c(O)c1 [Noradrenaline] ... 6.38
CC(Cc1ccc(O)cc1)NCC(O)c1cc(O)cc(O)c1 (stereo not shown) [Fenoterol] ... 9.08
COc1ccc(CC(C)NCC(O)c2ccc(O)c(NC=O)c2)cc1 (stereo not shown) [Formoterol] ... 10.35
CC(C)(C)NCC(O)c1cc(Cl)c(N)c(Cl)c1 (stereo not shown) [Clenbuterol] ... 9.28
CNC[C@H](O)c1ccc(O)c(O)c1 [Adrenaline] ... 7.20
OCc1cc(C(O)CNCCCCCCOCCCCc2ccccc2)ccc1O (stereo not shown) [Salmeterol] ... 10.43

----------
- system.name: turkey β4C-adrenoceptor (tβ4C) (Meleagris gallopavo, UniProt P43141)
- Construct: expressed in transfected cells
- Sequence (P43141 whole entry): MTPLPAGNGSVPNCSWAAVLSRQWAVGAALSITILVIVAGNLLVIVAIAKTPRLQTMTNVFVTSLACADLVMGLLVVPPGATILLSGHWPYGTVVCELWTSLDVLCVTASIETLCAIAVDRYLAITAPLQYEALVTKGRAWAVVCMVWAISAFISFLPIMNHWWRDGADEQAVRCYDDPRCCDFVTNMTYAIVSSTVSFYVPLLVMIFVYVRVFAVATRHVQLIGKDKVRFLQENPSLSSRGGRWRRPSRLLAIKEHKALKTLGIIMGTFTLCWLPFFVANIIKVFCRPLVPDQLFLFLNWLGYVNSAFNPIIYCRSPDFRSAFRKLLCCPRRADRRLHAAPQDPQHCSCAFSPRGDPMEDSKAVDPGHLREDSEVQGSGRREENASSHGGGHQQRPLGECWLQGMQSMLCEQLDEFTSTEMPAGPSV
- test: cell-based
- Assay type: binding
- condition.set: competition with 3H-CGP12177, whole cells, CHO tβ4C; given as log KD; mean ± s.e.m.
quantity: Log KD

CC(CCc1ccccc1)NCC(O)c1ccc(O)c(C(N)=O)c1 (stereo not drawn) ... −7.70
CCCCCCNC(=O)Nc1ccc(S(=O)(=O)Nc2ccc(CCNC[C@H](O)COc3ccc(O)cc3)cc2)cc1 ... −7.63
COCCNC(=O)COc1ccc(OCCNC[C@H](O)COc2ccccc2)cc1 ... −7.59
C[C@H](Cc1ccc(OCC(=O)O)cc1)NC[C@H](O)c1cccc(Cl)c1 ... −5.89
O=C(O)COc1ccc(OCCNC[C@H](O)COc2ccccc2)cc1 ... −6.55
Br.COC(=O)COc1ccc(CC(C)NC[C@H](O)c2cccc(Cl)c2)cc1 (stereo partly drawn) [BRL35135A] ... −6.39
CCc1ccccc1OC[C@@H](O)CN[C@H]1CCCc2ccccc21.O=C(O)C(=O)O [SR59230A] ... −7.65
CC(C)OC(=O)c1cc2c(OCC(O)CNC(C)(C)C)cccc2[nH]1 (stereo not drawn) ... −9.06

----------
- system.name: turkey β3C-adrenoceptor (tβ3C) (Meleagris gallopavo)
- test: 3H-CGP12177 whole cell binding, CHO tβ3C cells
The label met is reserved for Kd strictly under 40 nM; not met covers values equal to or above it.

CC(C)NCC(O)c1ccc(O)c(O)c1 (centres unmarked) ... not met
CC(C)(Cc1ccccc1)NCC(O)c1ccc(O)c(NS(C)(=O)=O)c1 (centres unmarked) ... met
CC(C)(C)NCC(O)c1ccc(O)c(CO)c1 (centres unmarked) ... not met
OCc1cc(C(O)CNCCCCCCOCCCCc2ccccc2)ccc1O (centres unmarked) ... met
CC(C)(C)NC[C@H](O)COc1cccc2[nH]c(C#N)cc12 ... met
CC(CCc1ccc(O)cc1)NCC(O)c1ccc(O)cc1 (centres unmarked) ... not met
CC(C)(C)NCC(O)c1ccccc1Cl (centres unmarked) ... not met
CC(C)(C)NCC(O)c1cc(O)cc(O)c1 (centres unmarked) ... not met
CC(C)(C)NCC(O)c1cc(Cl)c(N)c(Cl)c1 (centres unmarked) ... not met
CC(C)(Cc1c[nH]c2ccccc12)NCC(O)COc1ccccc1C#N (centres unmarked) ... met
COc1ccc(CC(C)NCC(O)c2ccc(O)c(NC=O)c2)cc1 (centres unmarked) ... met
